Data origin, for the record: patent US20230212163A1

Listed next: entries and their corresponding pest or weed control at 500 g/ha.
# Tested on: Nezara viridula
# MEASUREMENT NOTES: Nezara viridula spray test
# Format: in vivo
# MEASUREMENT PARAMETERS: Nezara viridula, 96 h, application rate 500 g/ha, after 4 days
Please give a number only; it is taken to be in %.

For orientation, consider the following solved cases.
[[record]]
molecule = "CCS(=O)(=O)c1ccc(-n2ncn(-c3ccc(F)cc3)c2=O)nc1-c1nc2cc(S(=O)(=O)C(F)(F)C(F)(F)F)ccc2o1 [Example I-52]"
result_unit = "%"
observed = 100

[[record]]
molecule = "CCS(=O)(=O)c1ccc(-n2ncn(-c3ccc(F)cc3)c2=O)nc1-c1nc2cc(C(F)(F)C(F)(F)F)ccc2o1 [Example I-56]"
result_unit = "%"
observed = 100


Attention now shifts to the item below.
Incoming: Which value of pest or weed control at 500 g/ha has been reported for CCS(=O)(=O)c1ccc(-n2ncn(-c3cccc(Cl)c3)c2=O)nc1-c1nc2cc(S(=O)(=O)C(F)(F)C(F)(F)F)ccc2o1 [Example I-41] in the records?
Outgoing: 100
